Source listed as patent US20180355059A1.

Each item that follows carries a reported OD450 nm (PCSK9 bound to LDLR).
molecular target: T1, recombinant human PCSK9 protein, His-tagged (Immunogen A, hPCSK9-His) (human, UniProt Q8NBP7 31-692, limits assumed, biotin-labelled in the ELISA and blocking assays (Biotin labeling kit)); test: blocking ELISA, biotin-hPCSK9-His on coated LDLR ECD-His; antibody 40 nM
T1 construct: also called human PCSK9-His; recombinant hPCSK9-His; not shown: His tag
Just the number in OD450 nm, nothing appended.

139G1C5, chimeric anti-PCSK9 mAb purified from hybridoma (antibody, V domains shown, From Harbour H2L2 mice: human variable regions, rat constant regions) VH: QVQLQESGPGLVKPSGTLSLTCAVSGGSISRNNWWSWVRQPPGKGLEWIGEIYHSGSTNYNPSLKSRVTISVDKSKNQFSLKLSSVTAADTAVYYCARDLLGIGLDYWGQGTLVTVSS VL: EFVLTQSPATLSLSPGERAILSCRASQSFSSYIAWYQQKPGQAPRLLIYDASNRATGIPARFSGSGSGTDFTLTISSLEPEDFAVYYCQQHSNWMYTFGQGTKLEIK	0.67
76A1B11, chimeric anti-PCSK9 mAb purified from hybridoma (antibody, V domains shown, From Harbour H2L2 mice: human variable regions, rat constant regions) VH: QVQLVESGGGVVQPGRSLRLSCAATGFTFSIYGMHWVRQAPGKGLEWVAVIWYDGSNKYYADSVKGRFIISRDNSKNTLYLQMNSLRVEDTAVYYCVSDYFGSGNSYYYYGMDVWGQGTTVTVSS VL: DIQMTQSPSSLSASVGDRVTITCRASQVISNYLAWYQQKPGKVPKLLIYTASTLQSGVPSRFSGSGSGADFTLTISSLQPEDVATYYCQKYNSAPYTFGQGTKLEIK	0.59
74C10A8, chimeric anti-PCSK9 mAb purified from hybridoma (antibody, V domains shown, From Harbour H2L2 mice: human variable regions, rat constant regions) VH: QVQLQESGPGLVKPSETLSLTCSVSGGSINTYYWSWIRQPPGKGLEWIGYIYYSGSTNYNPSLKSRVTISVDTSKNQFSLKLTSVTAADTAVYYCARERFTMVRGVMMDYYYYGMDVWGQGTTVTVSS VL: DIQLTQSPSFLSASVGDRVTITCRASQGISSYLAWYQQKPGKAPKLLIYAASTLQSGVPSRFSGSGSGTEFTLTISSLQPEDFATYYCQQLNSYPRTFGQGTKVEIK	0.68

Would you kindly share the measured OD450 nm (PCSK9 bound to LDLR) for 152G2F7, chimeric anti-PCSK9 mAb purified from hybridoma (antibody, V domains shown, From Harbour H2L2 mice: human variable regions, rat constant regions) VH: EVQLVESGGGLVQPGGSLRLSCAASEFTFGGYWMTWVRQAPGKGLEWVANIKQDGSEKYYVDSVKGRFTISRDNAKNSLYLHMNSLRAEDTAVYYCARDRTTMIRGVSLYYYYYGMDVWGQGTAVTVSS VL: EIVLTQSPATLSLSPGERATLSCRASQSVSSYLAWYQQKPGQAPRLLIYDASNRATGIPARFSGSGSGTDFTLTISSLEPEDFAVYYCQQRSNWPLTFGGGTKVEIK ?
0.74

Next up: 103C11E8, chimeric anti-PCSK9 mAb purified from hybridoma (antibody, V domains shown, From Harbour H2L2 mice: human variable regions, rat constant regions) VH: QVQLQESGPGLVKPSGTLSLTCAVSGGSISSSNWWSWVRQPPGKGLEWIGEIYHSGSTNYNPSLKSRVTISVDKSKNQFSLKLSSVTAADTAVYYCARGIAVAGTDVMDAWGQGASVTVSS VL: EIVLTQSPATLSLSPGERATLSCRASQSVSSYLVWYQQKSGQAPRLLIYGTSNRATGIPARFSGSGSGTDFTLTISSLEPEDFALYYCQQRGNWMYTFGQGTKLEIK
0.77
